Assay: in vitro
Format: in vitro ADME
Details: human, Caco-2, Caco-2 (2-7d) Papp
Experimental readout: Papp A→B at 30 min, 100 μM (×10⁻⁶ cm/s)

1. CC(C)C(=O)OC[C@H]1O[C@@H](n2ccc(N)nc2=O)[C@](C)(F)[C@@H]1OC(=O)C(C)C [I-2]
2. C[C@@]1(F)[C@H](O)[C@@H](CO)O[C@H]1n1ccc(N)nc1=O [I-6, reference compound]
3. CCCOC(=O)OC[C@H]1O[C@@H](n2ccc(N)nc2=O)[C@](C)(F)[C@@H]1OC(=O)OCCC.Cl [I-5]
4. CC(C)COC(=O)OC[C@H]1O[C@@H](n2ccc(N)nc2=O)[C@](C)(F)[C@@H]1OC(=O)OCC(C)C [I-4]
Rank the items in ascending order with respect to Papp A→B at 30 min, 100 μM. The labels, placed in the requested order, form the answer.
2, 1, 4, 3

---

Test: Stability in simulated gastric fluid
Assay type: physicochemical
Settings: simulated gastric fluid pH 1.2, 37° C.; read-out: SGF T1/2 (converted)
Experimental readout: half-life (h)

A. CC(C)C(=O)OC[C@H]1O[C@@H](n2ccc(N)nc2=O)[C@](C)(F)[C@@H]1OC(=O)C(C)C
B. CCC(=O)OC[C@H]1O[C@@H](n2ccc(N)nc2=O)[C@](C)(F)[C@@H]1OC(=O)CC
Returns the identifier with the smallest measured half-life among A and B . I would appreciate it if you answered with the label of your choice.
B

---

Assay: Stability in simulated intestinal fluid
Format: physicochemical
Conditions: simulated intestinal fluid pH 7.4, 37° C.; read-out: SIF T1/2 (converted)
Protocol: Particularly relevant are water solubility, partition coefficient and stability in gastric and intestinal fluids. […] The solubility in water of a orally administered prodrug should be greater than at least about 0.1 mg/mL for optimal formulation and the half-lives in simulated gastric fluid and simulated intestinal fluid should be 1-2 h and 2-4 h respectively to allow sufficient time to traverse the stomach and be absorbed in the intestine.
Reported half-life is given for each of the following compounds.

Past entries and their recorded results:
Compound	half-life
C[C@@]1(F)[C@H](O)[C@@H](CO)O[C@H]1n1ccc(N)nc1=O [I-6, reference compound]	> 12 h
CC(C)COC(=O)OC[C@H]1O[C@@H](n2ccc(N)nc2=O)[C@](C)(F)[C@@H]1OC(=O)OCC(C)C	> 15 h

// switching to the query compound
Item `CCCOC(=O)OC[C@H]1O[C@@H](n2ccc(N)nc2=O)[C@](C)(F)[C@@H]1OC(=O)OCCC.Cl` : provide half-life
> 11 h

---

Test: Stability in simulated gastric fluid
Type: physicochemical
Settings: simulated gastric fluid pH 1.2, 37° C.; read-out: SGF T1/2 (converted)
Experimental readout: half-life

Past entries and their recorded results:
Molecule	half-life
CC(C)COC(=O)OC[C@H]1O[C@@H](n2ccc(N)nc2=O)[C@](C)(F)[C@@H]1OC(=O)OCC(C)C	> 7 h
CCCOC(=O)OC[C@H]1O[C@@H](n2ccc(N)nc2=O)[C@](C)(F)[C@@H]1OC(=O)OCCC.Cl	> 10.4 h

// switching to the query molecule
Item C[C@@]1(F)[C@H](O)[C@@H](CO)O[C@H]1n1ccc(N)nc1=O [I-6, reference compound] : provide half-life
> 12 h

// data source = patent US7754699B2
